Entry source: ChEMBL document CHEMBL6092217

System: PC-3
Assay: Antiproliferative activity against human PC-3 cells assessed as cell viability incubated for 72 hrs by MTT assay
Assay type: functional, cell-based
Details: PC-3, 72 h
pIC50: −log10 of the molar value.

| MOLECULE_SMILES | pIC50 |
| --- | --- |
| CN(c1ccc2c(c1)OCCO2)c1nc(/C=C/c2ccccc2)nc2ccccc12 | 5.84 |
| CN(c1ccc(F)cc1)c1nc(/C=C/c2ccccc2)nc2ccccc12 | 5.95 |
| COc1ccc(N(C)c2nc(/C=C/c3ccc(OC)c(OC)c3)nc3ccccc23)cc1 | 5.84 |

----------
This listing pairs compounds with measured IC50.
Test system: RKO
Assay: Antiproliferative activity against human RKO cells assessed as cell viability incubated for 72 hrs by MTT assay
Type: functional, cell-based
READOUT_KIND: IC50 (nM)

| MOLECULE_SMILES | READOUT_KIND | UNITS_LABEL | MODIFIER | OBSERVED |
| --- | --- | --- | --- | --- |
| COc1ccc(N(C)c2nc(/C=C/c3ccc(C)cc3)nc3ccccc23)cc1 | IC50 | nM | = | 1710 |
| COc1ccc(N(C)c2nc(/C=C/c3ccc([N+](=O)[O-])cc3)nc3ccccc23)cc1 | IC50 | nM | = | 4270 |
| COc1ccc(N(C)c2nc(/C=C/c3ccccc3)nc3ccccc23)cc1OC | IC50 | nM | = | 630 |
| COc1ccc(N(C)c2nc(/C=C/c3cccc(OC)c3)nc3ccc(F)cc23)cc1 | IC50 | nM | = | 240 |
| COc1ccc(N(C)c2nc(/C=C/c3ccc(Cl)cc3Cl)nc3ccccc23)cc1 | IC50 | nM | = | 1760 |
| COc1ccc(N(C)c2nc(/C=C/c3cccc(F)c3)nc3cccnc23)cc1 | IC50 | nM | = | 510 |
| CN(c1ccc2occc2c1)c1nc(/C=C/c2ccccc2)nc2ccccc12 | IC50 | nM | = | 1590 |
| CC(=O)O[C@H]1C(=O)[C@@]2(C)[C@H]([C@H](OC(=O)c3ccccc3)[C@]3(O)C[C@H](OC(=O)[C@H](O)[C@@H](NC(=O)c4ccccc4)c4ccccc4)C(C)=C1C3(C)C)[C@]1(OC(C)=O)CO[C@@H]1C[C@@H]2O | IC50 | nM | = | 3 |
| COc1ccc(N(C)c2nc(/C=C/c3cccc(F)c3)nc3ccccc23)cc1 | IC50 | nM | = | 170 |
| CN(c1ccc2c(c1)OCO2)c1nc(/C=C/c2ccccc2)nc2ccccc12 | IC50 | nM | = | 720 |
| COc1ccc(OC)c(N(C)c2nc(/C=C/c3ccccc3)nc3ccccc23)c1 | IC50 | nM | > | 10000 |
